biological target: T1, Human ACVR2A (human, UniProt P27037 20-135, limits assumed); test: ELISA; note: test concentration or dose not given here
T1 construct: also called activin receptor, type II A
T1 sequence (P27037 20-135 limits assumed): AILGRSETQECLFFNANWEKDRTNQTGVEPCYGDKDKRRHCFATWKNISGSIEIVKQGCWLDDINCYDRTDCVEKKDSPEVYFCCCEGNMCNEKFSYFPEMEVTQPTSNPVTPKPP
QUANTITY: optical density (OD)

[
  {
    "BINDER": "369_F09 (antibody, V domains shown, VH/VL only) VH: EVQLLESGGGLVQPGGSLRLSCAASGFTFSSYGMHWVRQAPGKGLEWVAGINYNGGYTSYADSVKGRFTISRDNSKNTLYLQMNSLRAEDTAVYYCARGATWHDTHLDYWGQGTLVTVSS VL: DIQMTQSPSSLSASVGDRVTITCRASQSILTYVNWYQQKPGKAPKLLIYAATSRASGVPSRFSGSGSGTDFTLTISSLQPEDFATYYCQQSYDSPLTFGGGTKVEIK",
    "RESULT VALUE": 3.23
  },
  {
    "BINDER": "376_G05 (antibody, V domains shown, VH/VL only) VH: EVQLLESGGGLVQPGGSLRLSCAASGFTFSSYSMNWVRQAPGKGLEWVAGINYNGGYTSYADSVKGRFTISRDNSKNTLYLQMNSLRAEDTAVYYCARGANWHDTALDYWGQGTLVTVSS VL: DIQMTQSPSSLSASVGDRVTITCRASQSIISYVNWYQQKPGKAPKLVIYAATSRASGVPSRFSGSGSGTDFTLTISSLQPEDFATYYCQQSYESPLTFGGGTKVEIK",
    "RESULT VALUE": 3.75
  },
  {
    "BINDER": "373_D06 (antibody, V domains shown, VH/VL only) VH: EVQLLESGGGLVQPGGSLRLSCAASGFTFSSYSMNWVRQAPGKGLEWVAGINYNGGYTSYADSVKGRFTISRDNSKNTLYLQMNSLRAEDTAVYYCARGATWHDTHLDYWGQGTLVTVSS VL: DIQMTQSPSSLSASVGDRVTITCRASQSIVTYLNWYQQKPGKAPKLLIYAATSRASGVPSRFSGSGSGTDFTLTISSLQPEDFATYYCQQSYDTPLTFGGGTKVEIK",
    "RESULT VALUE": 3.63
  },
  {
    "BINDER": "365_C11 (antibody, V domains shown, VH/VL only) VH: EVQLLESGGGLVQPGGSLRLSCAASGFTFSSYSMNWVRQAPGKGLEWVAGINYNGGYKSYADSVKGRFTISRDNSKNTLYLQMNSLRAEDTAVYYCARSANWHDTHLDYWGQGTLVTVSS VL: DIQMTQSPSSLSASVGDRVTITCRASQSIITYLNWYQQKPGKAPKLVIYAVTSRASGVPSRFSGSGSGTDFTLTISSLQPEDFATYYCQQSYSLPLTFGGGTKVEIK",
    "RESULT VALUE": 2.66
  },
  {
    "BINDER": "375_A03 (antibody, V domains shown, VH/VL only) VH: EVQLLESGGGLVQPGGSLRLSCAASGFTFDSYSMNWVRQAPGKGLEWVAGINYNGGYTSYADSVKGRFTISRDNSKNTLYLQMNSLRAEDTAVYYCARGATWHDTHLDYWGQGTLVTVSS VL: DIQMTQSPSSLSASVGDRVTITCRASQSILTYLNWYQQKPGKAPKLLIYAATSRHSGVPSRFSGSGSGTDFTLTISSLQPEDFATYYCQQSYDNPLTFGGGTKVEIK",
    "RESULT VALUE": 3.62
  },
  {
    "BINDER": "365_H12 (antibody, V domains shown, VH/VL only) VH: EVQLLESGGGLVQPGGSLRLSCAASGFTFSSYSMNWVRQAPGKGLEWVSNINYNGGYKSYADSVKGRFTISRDNSKNTLYLQMNSLRAEDTAVYYCARSANWHDTHLDYWGQGTLVTVSS VL: DIQMTQSPSSLSASVGDRVTITCRASQSIITYVNWYQQKPGKAPKLLIYAATSRASGVPSRFSGSGSGTDFTLTISSLQPEDFATYYCQQSYSTPLTFGGGTKVEIK",
    "RESULT VALUE": 2.97
  },
  {
    "BINDER": "370_H04 (antibody, V domains shown, VH/VL only) VH: EVQLLESGGGLVQPGGSLRLSCAASGFTFSSYSMNWVRQAPGKGLEWVSNINYNGGYTGYADSVKGRFTISRDNSKNTLYLQMNSLRAEDTAVYYCARGATWHDTHLDYWGQGTLVTVSS VL: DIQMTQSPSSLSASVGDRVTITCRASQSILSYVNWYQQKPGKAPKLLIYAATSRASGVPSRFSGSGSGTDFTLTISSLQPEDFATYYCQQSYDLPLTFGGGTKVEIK",
    "RESULT VALUE": 3.48
  },
  {
    "BINDER": "365_C10 (antibody, V domains shown, VH/VL only) VH: EVQLLESGGGLVQPGGSLRLSCAASGFTFSSYGMHWVRQAPGKGLEWVASINYNGGYTSYADSVKGRFTISRDNSKNTLYLQMNSLRAEDTAVYYCARSANWHDTALDYWGQGTLVTVSS VL: DIQMTQSPSSLSASVGDRVTITCRASQSILSYVNWYQQKPGKAPKLLIYAATSLASGVPSRFSGSGSGTDFTLTISSLQPEDFATYYCQQSYESPLTFGGGTKVEIK",
    "RESULT VALUE": 2.45
  },
  {
    "BINDER": "369_D08 (antibody, V domains shown, VH/VL only) VH: EVQLLESGGGLVQPGGSLRLSCAASGFTFSDYSMNWVRQAPGKGLEWVASINYNGGYKGYADSVKGRFTISRDNSKNTLYLQMNSLRAEDTAVYYCARGATWHDTHLDYWGQGTLVTVSS VL: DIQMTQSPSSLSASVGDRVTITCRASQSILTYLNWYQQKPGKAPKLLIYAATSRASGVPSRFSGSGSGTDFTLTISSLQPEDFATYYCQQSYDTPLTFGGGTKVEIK",
    "RESULT VALUE": 2.94
  },
  {
    "BINDER": "366_H08 (antibody, V domains shown, VH/VL only) VH: EVQLLESGGGLVQPGGSLRLSCAASGFTFSDYGMNWVRQAPGKGLEWVASINYNSGYTSYADSVKGRFTISRDNSKNTLYLQMNSLRAEDTAVYYCARSANWHDTHLDYWGQGTLVTVSS VL: DIQMTQSPSSLSASVGDRVTITCRASQSILSYVNWYQQKPGKAPKLLIYAATSRHSGVPSRFSGSGSGTDFTLTISSLQPEDFATYYCQQSYNNPLTFGGGTKVEIK",
    "RESULT VALUE": 2.59
  }
]

Where these numbers come from: patent US20210380703A1
